System: NCI-H226 lung
Test: NCI-60 one-dose screen, 48 h (100 = growth as untreated, 0 = no growth, -100 = all killed)
Settings: 10 µM unless noted
Compounds without any hit were thinned out: in the full panel of roughly 83,000, 20% have a hit. Active and inactive are the calls of the source. The calls were made as follows: active = growth percent below 10; inactive = the rest.
measured_property: growth

Some solved entries appear below for comparison.
compound=Cc1cc(NCCN(C(C)C)C(C)C)nc(/N=C(\N)Nc2ccc(Cl)c(C(F)(F)F)c2)n1 target_of_assay="NCI-H226 lung" recorded_result="-32.1% (active)"
compound=Cc1ccc(-c2cc(-c3nnc(SCC(=O)c4ccccc4)o3)c3ccccc3n2)cc1 target_of_assay="NCI-H226 lung" recorded_result="94.5% (inactive)"
compound=c1ccc2c(c1)Oc1cccnc1-n1nccc1-2 target_of_assay="NCI-H226 lung" recorded_result="77.3% (inactive)"
compound="CN1C(=O)C2(SCC(C(=O)NCC(=O)OC(C)(C)C)N2C(=O)C2CCCCC2)c2ccccc21 (stereo not given)" target_of_assay="NCI-H226 lung" recorded_result="91.6% (inactive)"

Consider `Cc1c(Cl)ccc2c(C(=O)Cl)cc(-c3ccccc3)nc12` . Its measured growth is 90.8% (inactive)

get_value(item= `COc1ccc(C(=O)NC(=O)Nc2ccc3c(c2)NC(=O)/C3=C\c2[nH]c(C)c(C(=O)O)c2C)cc1` , readout=growth) returns 83.9% (inactive)

Per the records, this compound ( CCC1(C(N)=O)CC2C=CC1CC2 (stereo not given) ) has growth equal to 109% (inactive)

# compound `COc1ccc(-n2c(-c3ccc(NC(=O)CCCl)cc3)nnc2-c2cc(OC)c(OC)c(OC)c2)cc1` ; its growth = 68.8% (inactive)

Entry `COc1ccc(/C(=C/c2cc(OC)c(OC)c(OC)c2)[N+](=O)[O-])cc1` — recorded growth = 3.77% (active)

Sample `CCOC(=O)n1cnc2c(Cl)ncnc21` ; growth observed: 113% (inactive)

----------
Tested on: SR leukemia
Assay: NCI-60 one-dose screen, 48 h
Conditions: 10 µM unless noted
About 83,000 compounds went through this panel and 20% of them were active in at least one assay; those are over-represented in the sample as a whole. Calls of active or inactive are those of the source. Rule for the calls: active = growth percent below 10; inactive = the rest.
Classes to choose from: 1.0 for active, 0.0 for inactive

compound=O=C(Nc1ccc(Cl)c(Cl)c1)Nc1ccc(Cl)c([N+](=O)[O-])c1 group_label=1.0
compound=COc1ccc(C(=O)NC(=O)Nc2ccc3c(c2)NC(=O)/C3=C\c2[nH]c(C)c(CCC(=O)O)c2C)c(F)c1 group_label=0.0
compound=O=C(Nc1cccc([N+](=O)[O-])c1)c1ccc2ccccc2c1O group_label=0.0
compound=CCn1c(C)nc([N+](=O)[O-])c1Sc1nc(N)nc2nc[nH]c12 group_label=0.0
compound=Cc1ccc(-c2cc(-c3nnc(SCC(=O)c4ccccc4)o3)c3ccccc3n2)cc1 group_label=0.0

Qu. // param item: `CCCC(=O)Oc1ccc(/C(=C(\C)c2ccc(OC)cc2)c2ccc(OCCN3CCCCC3)cc2)cc1` ; yields the recorded call
Ans. 1.0

----------
Tested on: HCT-15 colon
Experiment: NCI-60 one-dose screen, 48 h (100 = growth as untreated, 0 = no growth, -100 = all killed)
Details: 10 µM unless noted
The panel holds about 83,000 compounds, 20% with a hit somewhere; the sample as a whole holds those more often. Calls of active or inactive are those of the source. Rule for the calls: active = growth percent below 10; inactive = the rest.
measured_property: growth

Past entries and their recorded results:
compound=C#C[C@@]1(O)[C@@H](CO)O[C@@H](n2cc(C(F)(F)F)c3c(N)ncnc32)[C@@H]1O target_of_assay="HCT-15 colon" recorded_result="3.11% (active)"
compound="N#Cc1c(N)nc2c(c1N)C(c1ccc(Cl)cc1)C1=C(CCCC1=O)N2c1sc2c(c1C#N)CCCC2 (stereo not drawn)" target_of_assay="HCT-15 colon" recorded_result="102% (inactive)"
compound=COc1cc2ncnc(Oc3ccc(NC(=O)Nc4ccc(C5(C#N)CCCC5)cc4)c4ccccc34)c2cc1OC target_of_assay="HCT-15 colon" recorded_result="74.5% (inactive)"

So for `Cc1cccc(Cc2cnc(NC(=O)CCc3ccc(C)o3)s2)c1` , the logged growth turned out to be 7.47% (active)

Measured growth, `O=C(NCCNc1nccc(-c2c(-c3cccc(O)c3)nc3sccn23)n1)Nc1cccc(C(F)(F)F)c1` : 84.7% (inactive)

Form: compound = C=C(C)[C@@H]1C/C=C(\COC(=O)[C@H](OC(C)=O)C(NC(=O)c2ccccc2)c2ccccc2)CC[C@H]2O[C@]2(C)CC/C=C(\C)CC1 (stereo partly drawn) ; growth = 89% [5 µM] (inactive)

response.value for CC(CCC(=O)O)[C@H]1CCC2C3C(=O)C[C@@H]4CC(=O)CC[C@]4(C)C3CC(=O)[C@@]21C (stereo partly drawn) (field: growth) = 105% (inactive)

growth measured on `C=C1C(=O)O[C@H]2[C@H]1CC/C(C(=O)NCCOCCOCC(=O)Nc1ccc(OC)c(C(N)=O)c1O)=C\CC[C@@]1(C)O[C@@H]21` = 101% (inactive)

----------
System: HOP-62 NSCLC
Assay: NCI-60 one-dose screen, 48 h
Details: 10 µM unless noted
About 83,000 compounds went through this panel and 20% of them were active in at least one assay; those are over-represented in the sample as a whole. Activity calls are given as the source filed them. The calls were made as follows: active = growth percent below 10; inactive = the rest.
The reply should be one of these categories: label 1 for active, label 0 for inactive

Qu. Assay outcome for `COc1ccc(-c2coc3c(CO)c(O)ccc3c2=O)cc1` : what was it?
Ans. label 0

Qu. Recorded call for `CC(C)Cn1cnc2c3ccccc3nc(NCn3nc(-c4cc(Cl)cc(Cl)c4Cl)oc3=S)c21` ?
Ans. label 0

Qu. For `Clc1ccc2c(NCCNc3nc(Cl)nc4ccccc34)ccnc2c1` , which call appears in the assay record?
Ans. label 1

Qu. Name the outcome recorded for `COc1cc(C(=O)NNC(=O)c2ccccc2O)cc(OC)c1OC` in the assay.
Ans. label 0

Qu. # lookup: test call for `CCCCCCCCCCCCCCCCNc1ccccc1`
Ans. label 0

Qu. What was the test verdict on `O=C(NNC(=O)c1ccc([N+](=O)[O-])cc1)c1ccc([N+](=O)[O-])cc1` ?
Ans. label 0

Qu. Fill in: this test's call for `COc1cc(NC(=O)c2cc(OC)c3ccn(C)c3c2)cc2c1C[C@]1(C)CC[C@@H](O)C(C)(C)[C@H]1O2` is ___
Ans. label 0

Qu. Any idea what this test logged for `Cc1nssc1=S` ?
Ans. label 0

Qu. Hello, I am checking results. What call was entered for `Nc1ccc(S(=O)(=O)Nc2cc(I)cc(I)c2)cc1` ?
Ans. label 0

Qu. Outcome logged for Cc1cn([C@]2(CF)O[C@H](CO)C2C)c(=O)[nH]c1=O (stereo partly specified) in this assay:
Ans. label 0

Qu. In this assay, the call recorded for `Cc1nccc2c3ccc(OCc4cn(Cc5ccc(Br)cc5)nn4)cc3n(CCCc3ccccc3)c12` was what?
Ans. label 0

----------
Tested on: U251 CNS
Experiment: NCI-60 one-dose screen, 48 h
Conditions: 10 µM unless noted
Compounds without any hit were thinned out: in the full panel of roughly 83,000, 20% have a hit. The source made the active and inactive calls. How the source made its calls: active means growth percent below 10; inactive means the rest.
Result category, one only: 1 (active), -1 (inactive)

Examples with answers:
compound=CCCCN(CCCC)c1ccc(C(=N)c2ccc(N(C)C)cc2)cc1 target_of_assay="U251 CNS" group_label=1
compound=COc1ccc(-c2nn(-c3ccc(NC(=O)c4ccc(Cl)c(C(F)(F)F)c4)cc3)cc2-c2ccncc2)cc1Cl target_of_assay="U251 CNS" group_label=-1
compound=c1ccc(CNCCN(CCNCc2ccccn2)Cc2ccc3ccccc3c2)nc1 target_of_assay="U251 CNS" group_label=1
compound=Cc1c(NC(=O)c2sc3nc4c(cc3c2N)CN(Cc2ccccc2)CC4)cccc1C(F)(F)F target_of_assay="U251 CNS" group_label=-1

Qu. Tell me the recorded outcome of this test for Cc1ccc2oc(=O)cc(C3C(C#N)=C(N)Oc4c3ccc3ccccc43)c2c1 (stereo unspecified) .
Ans. -1

Qu. What is the recorded call for this compound in the test? `OCc1cnccc1NC12CC3CC(CC(C3)C1)C2`
Ans. -1

Qu. # outcome recorded in this test, key = `NS(=O)(=O)c1ccc(CCN2C(=O)/C(=C\c3ccc(Cl)cc3)C=C2c2ccc(Oc3ccccc3)cc2)cc1`
Ans. -1

Qu. Which result was noted for this compound in the test: `O=C(CSc1nnc(-c2ccc(Cl)cc2)o1)Nc1ccc(C(=O)/C=C/c2ccccc2)cc1`
Ans. -1

Qu. What classification did `Cc1cc(-c2ccccc2)nc2ccccc12` end up with in this test?
Ans. -1

Qu. Name the outcome recorded for `C[C@]12O[C@H]1[C@H](O)c1c(cc(O)c3c1C(=O)c1cccc(O)c1-3)C2=O` in the assay.
Ans. -1

Qu. How was `CCCC(=O)Oc1ccc(/C(=C(\C)c2ccc(Cl)cc2)c2ccc(OCCN(CC)CC)cc2)cc1` classified in this test?
Ans. 1
